The reported numbers originate from patent US20240425587A1.

Consider the following binders and their measured koff readings.
# Assay Target: T1, human PILRA, c-term His-Avi tag (human, UniProt Q9UKJ1 20-197, limits assumed)
# T1 construct: not shown: C-terminal His-Avi tag
# T1 sequence (Q9UKJ1 20-197 limits assumed): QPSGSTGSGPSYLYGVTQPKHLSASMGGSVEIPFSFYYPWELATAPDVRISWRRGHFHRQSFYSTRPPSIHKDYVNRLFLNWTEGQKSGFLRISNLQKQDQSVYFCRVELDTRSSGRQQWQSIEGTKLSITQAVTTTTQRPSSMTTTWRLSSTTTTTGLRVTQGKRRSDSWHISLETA
# Run Description: SPR (Biacore), antibody captured, PILRA as analyte
Your answer should be a plain number; it is taken to be in s⁻¹.

A10 (antibody, V domains shown, phage campaign) VH: QVQLVQSGAEVKKPGASVKVSCKASGYTFTDYYIHWVRQAPGQGLEWMGWMNPNSGNTGYAQKFQGRVTMTRDTSTSTVYMELSSLRSEDTAVYYCAREGSSGWYVDYWGQGTLVTVSS VL: DIQMTQSPSSLSASVGDRVTITCQASQDISQFLNWYQQKPGKAPKLLIYDAYSLQSGVPSRFSGSGSGTDFTLTISSLQPEDFATYYCQQANSFPLTFGQGTKVEIK    0.0054
hPA-004 (antibody, V domains shown) VH: QVTLKESGPGMLQPSQTLSLACSFSGFSLNSFGVAVGWIRQPSGKGLEWLAHIWWDDDKSYNPALKSRLTISKDTSKNQVFLKLANVDTADTATYYCTRIADYGNHFDYWGQGTALTVSS VL: DIQMNQSPSSLSASLGDTITITCHASQNSHVWLSWYQQKPGNIPKLLIYKASNLHTGVPSRFSGSGSGTGFTLTISGLQPEDIATYYCQQGQTYPFTFGSGTKLEIK    0.0011
hPA-002 (antibody, V domains shown) VH: QVTLQESGPGILQPSQTLSLTCSFSGFSLSTFGMGVGWIRQPSGKGLEWLAHIWWDDDKYYNPALKSRLTISKDTSKNQVFLKIASVDTADIATYYCARVEDYGNPFDYWGQGTTL VL: DIQMNQSPSSLSASLGDTITITCHASQNIHVWLNWYQQKPGNIPKLLIYKASNLHTGVPSRFSGSGSGTGFTVTISSLQPEDIATYYCQQGQSYPLTFGAGTKLELK    0.0052

The record that follows has no koff shown yet.
Kindly indicate its recorded koff. Item: hPA-005 (antibody, V domains shown) VH: QVILKESGPGILQSSQTLSLTCSFSGFSLSTFGMGVGWIRQPSGKGLESLAHIWWDDDKFYNPALKSRLTISKDTSKSQVFLKIANVDTADIATYYCTRIEDYGSYFAYWGQGTTLTVSS VL: DVQMNQSPSSLSASLGDPITITCHASQNIHVWLNWYQQRPGNIPRLLIYKASNLHTGVPSRFSGSGSGTGFTLTISSLQPEDIATYYCQQGQSYPYTFGGGTKLEIK
0.0015
